System: KB
Test: Cytotoxicity against human KB cells after 48 hrs by MTT assay
Task for the reader: assign each of the following compounds its reported IC50.
Report the value in µg/mL with no unit label.

Form field - read-out: IC50; system: KB; submitted item: C=C[C@@H]1CC[C@@H]2[C@]3(CC[C@]4(C)[C@@H]([C@H](C)CC/C=C(/C)C(=O)O)CC[C@@]24C)C[C@]13CCC(=O)OC [SINOCALYCANCHINENSIN B]
20.9

Form field - read-out: IC50; system: KB; submitted item: COc1cccc2c1C(=O)c1c(O)c3c(c(O)c1C2=O)C[C@@](O)(C(C)=O)C[C@@H]3O[C@H]1C[C@H](N)[C@H](O)[C@H](C)O1 [DAUNORUBICIN]
0.45

Form field - read-out: IC50; system: KB; submitted item: C=C[C@@H]1CC[C@@H]2[C@]3(CC[C@]4(C)[C@@H]([C@H](C)CC/C=C(/C)C(=O)O)CC[C@@]24C)C[C@]13CCC(=O)O [SINOCALYCANCHINENSIN A]
30.7

====

System: MCF7
Assay: Cytotoxicity against human MCF7 cells after 48 hrs by MTT assay
Conditions: MCF7, 48 h
Task for the reader: assign each of the following compounds its reported log10 of IC50.
Field: value | Transform: log10 | Quantity: IC50 | Unit: mg/L

Consider the compound shown here: C/C(=C\CC[C@@H](C)[C@H]1CC[C@@]2(C)[C@@H]3CC[C@H]4[C@H](C)C(=O)CC[C@@]45C[C@@]35CC[C@]12C)C(=O)O What is its recorded log10 of IC50?
1.27

Consider the compound shown here: COC(=O)[C@@H](C)[C@@H]1CC[C@@H]2[C@]3(CC[C@]4(C)[C@@H]([C@H](C)CC/C=C(/C)C(=O)O)CC[C@@]24C)C[C@]13CCOC(C)=O What is its recorded log10 of IC50?
1.53

Consider the compound shown here: C=C[C@@H]1CC[C@@H]2[C@]3(CC[C@]4(C)[C@@H]([C@H](C)[C@H]5CC=C(C)C(=O)O5)CC[C@@]24C)C[C@]13CCC(=O)O What is its recorded log10 of IC50?
1.59

Consider the compound shown here: COc1cccc2c1C(=O)c1c(O)c3c(c(O)c1C2=O)C[C@@](O)(C(C)=O)C[C@@H]3O[C@H]1C[C@H](N)[C@H](O)[C@H](C)O1 What is its recorded log10 of IC50?
-1.48

Consider the compound shown here: C=C[C@@H]1CC[C@@H]2[C@]3(CC[C@]4(C)[C@@H]([C@H](C)CC/C=C(/C)C(=O)O)CC[C@@]24C)C[C@]13CCC(=O)OC What is its recorded log10 of IC50?
1.55

Consider the compound shown here: C/C(=C/CC[C@@H](C)[C@H]1CC[C@@]2(C)[C@@H]3CC[C@H]4[C@H](C)C(=O)CC[C@@]45C[C@@]35CC[C@]12C)C(=O)O What is its recorded log10 of IC50?
1.37

Consider the compound shown here: C=C[C@@H]1CC[C@@H]2[C@]3(CC[C@]4(C)[C@@H]([C@H](C)CC/C=C(/C)C(=O)O)CC[C@@]24C)C[C@]13CCC(=O)O What is its recorded log10 of IC50?
1.79

====

Experiment: Cytotoxicity against human colchicine-resistant KB-C2 cells after 48 hrs by MTT assay
Details: KB-C2, 48 h
Task for the reader: assign each of the following compounds its reported log10 IC50.
Field: value | Transform: log10 | Quantity: IC50 | Unit: µg/mL

Consider the compound shown here: COc1cccc2c1C(=O)c1c(O)c3c(c(O)c1C2=O)C[C@@](O)(C(C)=O)C[C@@H]3O[C@H]1C[C@H](N)[C@H](O)[C@H](C)O1 [DAUNORUBICIN] What is its recorded log10 IC50?
1.06

Consider the compound shown here: C=C[C@@H]1CC[C@@H]2[C@]3(CC[C@]4(C)[C@@H]([C@H](C)CC/C=C(/C)C(=O)O)CC[C@@]24C)C[C@]13CCC(=O)OC [SINOCALYCANCHINENSIN B] What is its recorded log10 IC50?
1.28

Consider the compound shown here: C=C[C@@H]1CC[C@@H]2[C@]3(CC[C@]4(C)[C@@H]([C@H](C)[C@H]5CC=C(C)C(=O)O5)CC[C@@]24C)C[C@]13CCC(=O)OC [SINOCALYCANCHINENSIN E] What is its recorded log10 IC50?
0.18

Consider the compound shown here: C=C[C@@H]1CC[C@@H]2[C@]3(CC[C@]4(C)[C@@H]([C@H](C)CC/C=C(/C)C(=O)O)CC[C@@]24C)C[C@]13CCC(=O)O [SINOCALYCANCHINENSIN A] What is its recorded log10 IC50?
1.52

Consider the compound shown here: C/C(=C/CC[C@@H](C)[C@H]1CC[C@@]2(C)[C@@H]3CC[C@H]4[C@H](C)C(=O)CC[C@@]45C[C@@]35CC[C@]12C)C(=O)O [SINOCALYCANCHINENSIN G] What is its recorded log10 IC50?
1.33

Consider the compound shown here: C=C[C@@H]1CC[C@@H]2[C@]3(CC[C@]4(C)[C@@H]([C@H](C)[C@H]5CC=C(C)C(=O)O5)CC[C@@]24C)C[C@]13CCC(=O)O [SINOCALYCANCHINENSIN D] What is its recorded log10 IC50?
1.41

Consider the compound shown here: C/C(=C\CC[C@@H](C)[C@H]1CC[C@@]2(C)[C@@H]3CC[C@H]4[C@H](C)C(=O)CC[C@@]45C[C@@]35CC[C@]12C)C(=O)O [SINOCALYCANCHINENSIN H] What is its recorded log10 IC50?
1.24

Consider the compound shown here: COC(=O)[C@@H](C)[C@@H]1CC[C@@H]2[C@]3(CC[C@]4(C)[C@@H]([C@H](C)CC/C=C(/C)C(=O)O)CC[C@@]24C)C[C@]13CCOC(C)=O [SINOCALYCANCHINENSIN F] What is its recorded log10 IC50?
1.24
